target: T1, cSNK:BSA conjugate (bovine, head-to-tail cyclized; conjugated to BSA carrier); experiment: BLI 2:1 fit, site 2 (kdis2); 3.13 nM row
T1 construct: also called BSA-cSNK
T1 sequence (P02769 25-607 limits assumed): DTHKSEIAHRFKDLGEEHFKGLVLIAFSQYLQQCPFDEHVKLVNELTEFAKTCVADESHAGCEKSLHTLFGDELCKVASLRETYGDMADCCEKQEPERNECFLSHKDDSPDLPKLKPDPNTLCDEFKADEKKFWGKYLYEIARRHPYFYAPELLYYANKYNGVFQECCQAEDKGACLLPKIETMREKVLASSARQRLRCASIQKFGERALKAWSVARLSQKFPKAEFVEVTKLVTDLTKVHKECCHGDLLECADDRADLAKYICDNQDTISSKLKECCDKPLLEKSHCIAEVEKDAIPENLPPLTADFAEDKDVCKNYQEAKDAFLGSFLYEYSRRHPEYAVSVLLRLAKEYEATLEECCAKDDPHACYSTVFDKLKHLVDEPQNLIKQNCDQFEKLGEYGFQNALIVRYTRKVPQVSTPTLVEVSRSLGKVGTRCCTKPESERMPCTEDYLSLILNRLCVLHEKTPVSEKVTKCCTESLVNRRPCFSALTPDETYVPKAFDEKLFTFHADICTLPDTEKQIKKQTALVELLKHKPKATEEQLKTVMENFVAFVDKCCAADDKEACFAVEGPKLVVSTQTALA
Reported Metric: koff (s⁻¹)
The response must be a number in s⁻¹ with no trailing unit.

Incoming: Form field: reported koff of rehu5E3-IgG4 (antibody, V domains shown, human IgG4/kappa; also called IgG4 rehu version) VH: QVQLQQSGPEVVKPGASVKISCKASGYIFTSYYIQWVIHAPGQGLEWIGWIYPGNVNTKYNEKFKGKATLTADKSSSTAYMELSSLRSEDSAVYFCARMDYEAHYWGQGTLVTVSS VL: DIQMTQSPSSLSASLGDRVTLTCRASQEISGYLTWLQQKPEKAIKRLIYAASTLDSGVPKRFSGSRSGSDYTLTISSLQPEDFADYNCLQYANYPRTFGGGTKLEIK
Outgoing: 0.0175
